# Tested on: recovered yeast (slurry yeast recovered from the beer fermentation step)
# Measurement description: Methylene Blue staining ratio (mortality) of yeast before drying or after drying and reconstitution with water
# Assay type: cell-based
# Test parameters: trehalose-treatment, then 300 g/L sugar alcohol as substitute for glycerol, 15 minutes; dried at 5° C.
In this section, each of the molecules is paired with its reported Methylene Blue-staining ratio (%) after reconstitution with water.
// units = %; emit number, no label

Please review the entries below; each comes with its answer.
OC[C@@H](O)[C@@H](O)[C@H](O)[C@@H](O)CO = 41.2
OC[C@@H](O)[C@H](O)[C@@H](O)CO = 30.4
OC[C@@H](O)[C@@H](O[C@H]1O[C@H](CO)[C@@H](O)[C@H](O)[C@H]1O)[C@H](O)[C@@H](O)CO = 30.1
OC[C@@H](O)[C@@H](O)[C@H](O)[C@H](O)CO = 47.5

# context switch: different molecule, same Methylene Blue-staining ratio (%) after reconstitution with water
Briefly, Methylene Blue-staining ratio (%) after reconstitution with water measured for `OCC(O)CO` : 24.4
